Consider the following compounds and their measured melting point readings.

Consider the worked cases shown below.
| compound | melting point |
| --- | --- |
| CC1Cc2cc3c(cc2C(c2ccc(N)cc2)=NN1C1=NCCS1)OCO3 (racemic) [Example 68] | 145 to 150 °C |
| Cc1cc(N2N=C(c3ccc(N)cc3)c3cc4c(cc3CC2C)OCO4)on1 (racemic) [Example 185] | 100 to 103 °C |
| CC1=Cc2cc3c(cc2C(c2ccc(C)c(N)c2)=NN1c1nnc(C)s1)OCO3 [Example 96] | 125 °C |
| C/C=C/c1nnc(N2N=C(c3ccc(N)c(C)c3)c3cc4c(cc3C[C@H]2C)OCO4)s1 [Example 177] | 139 to 143 °C |

Exercise: Any idea what its melting point is? The compound is CC1Cc2cc3c(cc2C(c2ccc(N)cc2)=NN1C1=NCCO1)OCO3 (racemic) [Example 82]
Solution: 166 to 167 °C

Exercise: Any idea what its melting point is? The compound is Cc1nnc(N2N=C(c3cccc(N)c3)c3cc4c(cc3CC2C)OCO4)s1 (racemic) [Example 97]
Solution: 197 to 198 °C

Exercise: Any idea what its melting point is? The compound is CCOC(=O)c1csc(N2N=C(c3ccc(N)cc3)c3cc4c(cc3CC2C)OCO4)n1 (racemic) [Example 67]
Solution: 251 to 252 °C

----------
Tested on: Lewis rats
Assay: Autoimmune encephalomyelitis model, neurological (clinical) symptoms
Type: in vivo
Conditions: Rattus norvegicus, ip, 3.75 mg/kg ip., female rats, 0-14 day; read-out: Neurological symptoms (change compared to controls, %)
Consider the following molecules and their measured change in vivo at 3.75 mg/kg readings.
Could you write the number and then its unit?

| item_smiles | recorded_value |
| --- | --- |
| Cc1nnc(N2N=C(c3ccc(N)c(C)c3)c3cc4c(cc3C[C@H]2C)OCO4)s1 | -90% |
| Cc1nnc(N2N=C(c3ccc(N)cc3)c3cc4c(cc3C[C@H]2C)OCO4)s1 | -18% |
| C[C@@H]1Cc2cc3c(cc2C(c2ccc(N)cc2)=NN1C1=NCCS1)OCO3 | 58% |

Exercise: Any idea what its change in vivo at 3.75 mg/kg is? The molecule is C[C@@H]1Cc2cc3c(cc2C(c2ccc(N)cc2)=NN1c1nccs1)OCO3
Solution: -48%

----------
Consider the following compounds and their measured melting point readings.

Consider the worked cases shown below.
| compound | recorded_value |
| --- | --- |
| CC1Cc2cc3c(cc2C(c2ccc(N)cc2)=NN1c1n[nH]c(=O)s1)OCO3 (racemic) [Example 101] | 263 to 264 °C |
| CC1Cc2ccc(Cl)cc2C(c2ccc(N)cc2)=NN1c1nccs1 (racemic) [Example 77] | 104 to 107 °C |
| Cc1nnc(N2N=C(c3ccc(N)cc3)c3cc4c(cc3CC2C)OCO4)s1 (racemic) [Example 85] | 143 to 148 °C |

Exercise: Any idea what its melting point is? The compound is CC1Cc2cc3c(cc2C(c2ccc(N)cc2)=NN1c1ccc(Cl)nn1)OCO3 (racemic) [Example 112]
Solution: 164 to 166 °C

Exercise: Any idea what its melting point is? The compound is CC(=O)Nc1ccc(C2=NN(c3nnc(C)s3)[C@H](C)Cc3cc4c(cc32)OCO4)cc1 [Example 130]
Solution: 276 to 277 °C

Exercise: Any idea what its melting point is? The compound is CC1Cc2cc3c(cc2C(c2ccc(N)cc2)=NN1c1nnc(-c2ccccc2)s1)OCO3 (racemic) (hydrate or solvate) [Example 91]
Solution: 228 to 230 °C

Exercise: Any idea what its melting point is? The compound is CCc1nnc(N2N=C(c3ccc([N+](=O)[O-])cc3)c3cc4c(cc3CC2C)OCO4)s1 (racemic) [Example 30]
Solution: 163 to 164 °C
